Target: BuChE (Homo sapiens, UniProt P06276)
Construct: purchased Aldrich
Sequence (P06276 29-602): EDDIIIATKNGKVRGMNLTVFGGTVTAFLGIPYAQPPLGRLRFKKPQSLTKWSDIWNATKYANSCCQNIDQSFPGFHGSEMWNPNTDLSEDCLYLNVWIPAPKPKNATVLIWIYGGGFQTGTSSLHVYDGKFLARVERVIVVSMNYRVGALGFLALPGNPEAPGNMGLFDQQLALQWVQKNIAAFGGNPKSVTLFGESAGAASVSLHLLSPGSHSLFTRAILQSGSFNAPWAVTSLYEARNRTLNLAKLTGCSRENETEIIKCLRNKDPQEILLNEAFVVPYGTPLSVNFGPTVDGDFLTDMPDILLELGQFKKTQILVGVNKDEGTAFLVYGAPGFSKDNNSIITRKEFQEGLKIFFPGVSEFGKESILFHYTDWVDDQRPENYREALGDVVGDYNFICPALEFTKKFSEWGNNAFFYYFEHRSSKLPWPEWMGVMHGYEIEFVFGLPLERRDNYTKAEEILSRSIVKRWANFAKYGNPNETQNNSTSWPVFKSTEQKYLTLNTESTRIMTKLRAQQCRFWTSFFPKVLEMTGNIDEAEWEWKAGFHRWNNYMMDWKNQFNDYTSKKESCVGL
Test: biochemical
Conditions: mean ± SD, three independent experiments; read-out: BuChEI IC50
Each item that follows carries a reported pIC50.
# pIC50 is unitless: minus log10 of the molar concentration; print number only

                                   compound  value_observed
0  CN(C)/C=C/C(=O)c1cc2ccc(OCc3cn(Cc4ccccc4)nn3)cc2oc1=O [Compound 10a]            4.46

Tell me the measured pIC50 of COc1cccc(Cn2cc(COc3ccc4cc(C(=O)/C=C/N(C)C)c(=O)oc4c3)nn2)c1 [Compound 10d] , please.
4.63

What about this compound? CN(C)/C=C/C(=O)c1cc2ccc(OCc3cn(Cc4cccc(Br)c4)nn3)cc2oc1=O [Compound 10l]
4.18

Please give the result for CN(C)/C=C/C(=O)c1cc2ccc(OCc3cn(Cc4cccc(F)c4)nn3)cc2oc1=O [Compound 10f] too.
4.22

# repeat for CN(C)/C=C/C(=O)c1cc2ccc(OCc3cn(Cc4ccc(F)c(F)c4)nn3)cc2oc1=O [Compound 10h]
4.66

Next: Cc1ccccc1Cn1cc(COc2ccc3cc(C(=O)/C=C/N(C)C)c(=O)oc3c2)nn1 [Compound 10b]
4.45

---

Target: BuChE (Homo sapiens, UniProt P06276)
Quantity name: Ki (µM)
Report only the number, with the unit µM understood.

Fill in the blank: the reported Ki of CN(C)/C=C/C(=O)c1cc2ccc(OCc3cn(Cc4ccc(F)c(F)c4)nn3)cc2oc1=O [Compound 10h] is ____.
38.3

---

Target: BuChE (Homo sapiens, UniProt P06276)
Construct: purchased Aldrich
Assay: biochemical
Conditions: mean ± SD, three independent experiments; read-out: BuChEI IC50
Quantity name: IC50

Worked examples follow.
>>> df
                                   compound  value_observed
0  CN(C)/C=C/C(=O)c1cc2ccc(OCc3cn(Cc4ccc(F)cc4)nn3)cc2oc1=O [Compound 10g]        > 100 µM
1  Cc1ccc(Cn2cc(COc3ccc4cc(C(=O)/C=C/N(C)C)c(=O)oc4c3)nn2)cc1 [Compound 10c]        > 100 µM
2  CN(C)/C=C/C(=O)c1cc2ccc(OCc3cn(Cc4ccccc4Br)nn3)cc2oc1=O [Compound 10k]        > 100 µM
3  CN(C)/C=C/C(=O)c1cc2ccc(OCc3cn(Cc4ccc(Cl)cc4)nn3)cc2oc1=O [Compound 10j]        > 100 µM
4  CN(C)/C=C/C(=O)c1cc2ccc(OCc3cn(Cc4ccccc4F)nn3)cc2oc1=O [Compound 10e]        > 100 µM
5  CN(C)/C=C/C(=O)c1cc2ccc(OCc3cn(Cc4ccccc4Cl)nn3)cc2oc1=O [Compound 10i]        > 100 µM

Moving on to the next compound.
I have this compound here, CN(C)/C=C/C(=O)c1cc2ccc(OCc3cn(Cc4ccc(Br)cc4)nn3)cc2oc1=O [Compound 10m] , and I need its recorded IC50.
> 100 µM
